Assay: Cytotoxicity, tube dilution method
Assay type: cell-based
Conditions: human, hela s3 cells, YLE medium, read-out: Minimum Inhibitory Concentration, tube dilution method
Readout label: MCC at 48 h (µg/mL)

[[record]]
compound = "CC=CC(C)=CC(C)C(=O)CC(O)CC1CC(=O)NC(=O)C1 (stereo not shown) [Antibiotic TS-885]"
readout_label = "MCC at 48 h"
unit_label = "µg/mL"
measurement = 0.4


---

Assay: Cytotoxicity, cylinder method
Assay type: cell-based
Details: mouse, l-cells, YLE medium, read-out: Minimum Inhibitory Concentration, cylinder method
Readout label: MCC at 48 h (µg/mL)

[[record]]
molecule = "CC=CC(C)=CC(C)C(=O)CC(O)CC1CC(=O)NC(=O)C1 (stereo not shown) [Antibiotic TS-885]"
unit_label = "µg/mL"
measurement = 0.25

